Parameter inhibition: see the listing below.
- target-under-test: Lethal factor (Bacillus anthracis)
- assay-overview: Lethal factor protease inhibitors, Bacillus anthracis, multiplex microsphere cleavage assay, validation set (AID 588461)
- run-parameters: flow cytometry, at 10 µM, hits give high values
Answer with a number only, understood to be in %.

Fill in: inhibition of Cc1onc(-c2c(Cl)cccc2Cl)c1C(=O)NC1C(=O)N2C1SC(C)(C)C2C(=O)O (stereo not given) is ___ 2.3

Fill in: inhibition of COc1ccc2c(c1)C=CC1(O2)N(CCO)c2ccccc2C1(C)C (stereo not given) is ___ -7.3

Fill in: inhibition of "COc1ccc(-c2[nH]ncc2CN(CCO)Cc2cccs2)c(F)c1" is ___ 5.8

Fill in: inhibition of COc1cc2c(cc1OC)C1(CCCC1)CNC2c1cccc([N+](=O)[O-])c1 (stereo not given) is ___ -9.4

====

- assay-overview: inhibitors of fungal efflux pumps CDR1, CDR2, MDR1, pilot screen, validation compound set, multiplex, phenotypic (AID 588506);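 further: Nile Red retained in cells so higher fluorescence means more efflux inhibition; 0 = negative control wells and 1 = enniatin B 25 µM full block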
- run-parameters: S. cerevisiae pump-expressing triplex, Nile Red efflux flow cytometry; at 10 µM
Activity calls are given as the source filed them.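 The calls were made as follows: active = efflux inhibition above 0.42, the validation set average plus 4 SD; inconclusive = no clear call, values can overlap the other calls; inactive = the rest.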 Peptide text beside a SMILES is read from it.
Hi! Could you answer with just one of these? active, inactive

# compound, label
data = [
    ("S=C1NCCN1", "active"),
    ("CC(C)C[C@H](NC(=O)[C@@H]1CCCN1C(=O)[C@@H](N)Cc1ccc(O)cc1)C(=O)NCC(N)=O (H-YPLG-NH2)", "inactive"),
]

Could you please tell me the result logged for C=CC1CN2CCC1CC2[C@@H](OC(=O)c1ccc(OC)cc1)c1ccnc2ccccc12 (stereo not given in full) in this assay? inactive

Could you please tell me the result logged for "CN(C)[C@@H]1C(=O)C(C(N)=O)=C(O)[C@@]2(O)C(=O)C3=C(O)c4c(O)cccc4[C@@](C)(O)[C@H]3[C@H](O)[C@@H]12" in this assay? inactive

Could you please tell me the result logged for "COc1ccc(C(=O)N2CCCC2=O)cc1" in this assay? inactive

Could you please tell me the result logged for Clc1ccc(C2NCCc3[nH]cnc32)cc1 (stereo not given) in this assay? inactive

Could you please tell me the result logged for "COP(=S)(OC)SCN1C(=O)c2ccccc2C1=O" in this assay? inactive

Could you please tell me the result logged for "CCN(CC)C(=O)N[C@H]1C[C@@H]2c3cccc4[nH]cc(c34)C[C@H]2N(C)C1" in this assay? inactive

Could you please tell me the result logged for "CC(=O)Nc1cc([As](=O)(O)O)ccc1O" in this assay? inactive

Could you please tell me the result logged for "C=C1[C@@H](C)[C@H]2[C@H](Cc3ccccc3)NC(=O)[C@]23OC(=O)/C=C/[C@H](O)CCC[C@@H](C)C/C=C/[C@H]3[C@@H]1O" in this assay? inactive

====

- target-under-test: Botulinum neurotoxin type A (Clostridium botulinum)
- assay-overview: BoNT/A light chain protease inhibitors, biochemical, multiplex microsphere flow cytometry, validation set (AID 588460)
- run-parameters: at 10 µM, hits give high values
Parameter inhibition: see the listing below.
Answer with a number only, understood to be in %.

Examples with answers:
# molecule, target-under-test, inhibition, %
rows = [
    ("CC/C(=C\\C=C\\[C@@H]1C=C[C@@H]2CCC[C@H]2[C@@H]1C(=O)c1ccc[nH]1)[C@@H]1O[C@@H]([C@@H](C)C(=O)O)CC[C@@H]1C", "Botulinum neurotoxin type A (Clostridium botulinum)", 0.5),
    ("O=C(O)c1ccccc1O", "Botulinum neurotoxin type A (Clostridium botulinum)", -0.5),
    ("Cn1c(=O)[nH]c(=O)c2c1ncn2CCN1CCOCC1", "Botulinum neurotoxin type A (Clostridium botulinum)", -1.5),
    ("CC(=O)NCCCCCCNC(C)=O", "Botulinum neurotoxin type A (Clostridium botulinum)", 2.3),
    ("COc1cc(C(=O)Nc2cccc(-c3nnc(-c4ccco4)o3)c2)ccc1OC(C)=O", "Botulinum neurotoxin type A (Clostridium botulinum)", 2.1),
    ("CC(C[N+](C)(C)C)OC(N)=O (configuration not stated)", "Botulinum neurotoxin type A (Clostridium botulinum)", -0.4),
]

Fill in: inhibition of "CCc1cc(-c2[nH]ncc2-c2ccc3c(c2)OCO3)c(O)cc1O" is ___ -0.4

Value source: PubChem BioAssay
